target: Glutathione S-transferase Mu 2 (Homo sapiens, UniProt P28161)
Sequence (P28161 whole entry): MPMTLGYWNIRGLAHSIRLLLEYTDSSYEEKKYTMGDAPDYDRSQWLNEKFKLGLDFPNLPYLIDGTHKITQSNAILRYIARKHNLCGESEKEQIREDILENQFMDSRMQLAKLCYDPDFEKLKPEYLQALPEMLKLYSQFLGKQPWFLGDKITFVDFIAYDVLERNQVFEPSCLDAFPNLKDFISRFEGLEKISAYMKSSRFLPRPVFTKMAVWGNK
Values of IC50 strictly less than 50 nM map to y, and values of at least 50 nM map to n.

Would you please look over these solved cases?
compound	assayed.system	category.label
CONC(=O)c1ccc(Sc2ccc([N+](=O)[O-])c3nonc23)cc1	Glutathione S-transferase Mu 2 (Homo sapiens, UniProt P28161)	n
O=[N+]([O-])c1ccc(SCCc2ccccc2)c2nonc12	Glutathione S-transferase Mu 2 (Homo sapiens, UniProt P28161)	y
COC(=O)CCSc1ccc([N+](=O)[O-])c2nonc12	Glutathione S-transferase Mu 2 (Homo sapiens, UniProt P28161)	y
O=[N+]([O-])c1ccc(SCC2CCCCC2)c2nonc12	Glutathione S-transferase Mu 2 (Homo sapiens, UniProt P28161)	y
O=C(NCCO)c1ccc(Sc2ccc([N+](=O)[O-])c3nonc23)cc1	Glutathione S-transferase Mu 2 (Homo sapiens, UniProt P28161)	n
O=[N+]([O-])c1ccc(SCCCCCCCCO)c2nonc12	Glutathione S-transferase Mu 2 (Homo sapiens, UniProt P28161)	y
O=C(NOCc1ccccc1)c1ccc(CSc2ccc([N+](=O)[O-])c3nonc23)cc1	Glutathione S-transferase Mu 2 (Homo sapiens, UniProt P28161)	y
O=C(NOC1CCCCO1)c1ccc(Sc2ccc([N+](=O)[O-])c3nonc23)cc1 (stereo not given)	Glutathione S-transferase Mu 2 (Homo sapiens, UniProt P28161)	n

Would you kindly verify if IC50 of O=[N+]([O-])c1ccc(SCCCc2ccccc2)c2nonc12 is strictly less than 50 nM? y

Would you kindly verify if IC50 of NC(=O)c1ccc(Sc2ccc([N+](=O)[O-])c3nonc23)cc1 is strictly less than 50 nM? n

Would you kindly verify if IC50 of O=C(O)Cc1ccc(Sc2ccc([N+](=O)[O-])c3nonc23)cc1 is strictly less than 50 nM? y

Would you kindly verify if IC50 of O=[N+]([O-])c1ccc(SCc2ccccc2)c2nonc12 is strictly less than 50 nM? y

Would you kindly verify if IC50 of O=C1CCN(C(=O)CCSc2ccc([N+](=O)[O-])c3nonc23)CC1 is strictly less than 50 nM? y

Would you kindly verify if IC50 of CN(C)C(=O)c1ccc(Sc2ccc([N+](=O)[O-])c3nonc23)cc1 is strictly less than 50 nM? n

Would you kindly verify if IC50 of CC(=O)NCCSc1ccc([N+](=O)[O-])c2nonc12 is strictly less than 50 nM? n

Would you kindly verify if IC50 of O=C(CCSc1ccc([N+](=O)[O-])c2nonc12)NCCO is strictly less than 50 nM? n

Would you kindly verify if IC50 of O=C(NOCc1ccccc1)c1ccc(Sc2ccc([N+](=O)[O-])c3nonc23)cc1 is strictly less than 50 nM? y

Would you kindly verify if IC50 of O=C(O)c1cccc(Sc2ccc([N+](=O)[O-])c3nonc23)c1 is strictly less than 50 nM? n

Would you kindly verify if IC50 of COC(=O)C(CSc1ccc([N+](=O)[O-])c2nonc12)NC(=O)OC(C)(C)C (stereo not given) is strictly less than 50 nM? y

Would you kindly verify if IC50 of O=C(O)c1ccccc1Sc1ccc([N+](=O)[O-])c2nonc12 is strictly less than 50 nM? n

Would you kindly verify if IC50 of O=C(O)c1ccc(CSc2ccc([N+](=O)[O-])c3nonc23)cc1 is strictly less than 50 nM? y

Would you kindly verify if IC50 of O=[N+]([O-])c1ccc(Sc2ccccc2)c2nonc12 is strictly less than 50 nM? y

Would you kindly verify if IC50 of CN(C)CCNC(=O)c1ccc(Sc2ccc([N+](=O)[O-])c3nonc23)cc1 is strictly less than 50 nM? n

Would you kindly verify if IC50 of O=C1CCN(CCSc2ccc([N+](=O)[O-])c3nonc23)CC1 is strictly less than 50 nM? y

Would you kindly verify if IC50 of CCOC(=O)c1ccc(Sc2ccc([N+](=O)[O-])c3nonc23)cc1 is strictly less than 50 nM? n

Would you kindly verify if IC50 of COC(=O)C(CSc1ccc([N+](=O)[O-])c2nonc12)NC(=O)OCc1ccccc1 (stereo not given) is strictly less than 50 nM? y

Would you kindly verify if IC50 of CCOC(=O)c1ccc(CSc2ccc([N+](=O)[O-])c3nonc23)cc1 is strictly less than 50 nM? y

Would you kindly verify if IC50 of O=C(O)CCc1ccc(Sc2ccc([N+](=O)[O-])c3nonc23)cc1 is strictly less than 50 nM? y

Would you kindly verify if IC50 of CC(C)(C)Sc1ccc([N+](=O)[O-])c2nonc12 is strictly less than 50 nM? y

----------
experiment: Solubility in water; assay type: physicochemical
property.label: solubility (µM)
Please give a number only; it is taken to be in µM.

compound	solubility, µM
CN(C)CCNC(=O)c1ccc(Sc2ccc([N+](=O)[O-])c3nonc23)cc1	2000
O=C(NCCO)c1ccc(Sc2ccc([N+](=O)[O-])c3nonc23)cc1	1000
COC(=O)C(CSc1ccc([N+](=O)[O-])c2nonc12)NC(=O)OCc1ccccc1 (stereo not given)	100

Please look at the following compound next.
// fetch solubility given entry O=[N+]([O-])c1ccc(SCCCCO)c2nonc12 1000

----------
target: Glutathione S-transferase P (Homo sapiens, UniProt P09211)
Sequence (P09211 whole entry): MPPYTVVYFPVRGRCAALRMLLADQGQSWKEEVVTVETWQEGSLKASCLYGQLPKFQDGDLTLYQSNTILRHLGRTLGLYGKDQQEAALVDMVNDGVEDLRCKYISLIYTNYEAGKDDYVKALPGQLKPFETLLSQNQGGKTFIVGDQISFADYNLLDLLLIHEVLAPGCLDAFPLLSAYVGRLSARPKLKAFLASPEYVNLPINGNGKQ
pIC50: −log10 of the molar value.
Short version: pIC50 at least 6 is Yes, less is No.

Would you please look over these solved cases?
structure.smiles.string	category.label
O=[N+]([O-])c1ccc(SCC2CCCCC2)c2nonc12	Yes
CC(C)(C)Sc1ccc([N+](=O)[O-])c2nonc12	Yes

Please tell me: is the compound CCOC(=O)c1ccc(Sc2ccc([N+](=O)[O-])c3nonc23)cc1 at or over 6 in terms of pIC50? No

Please tell me: is the compound O=C(O)c1ccccc1Sc1ccc([N+](=O)[O-])c2nonc12 at or over 6 in terms of pIC50? No

Please tell me: is the compound O=[N+]([O-])c1ccc(NCCCCCCO)c2nonc12 at or over 6 in terms of pIC50? No

Please tell me: is the compound O=C(O)Cc1ccc(Sc2ccc([N+](=O)[O-])c3nonc23)cc1 at or over 6 in terms of pIC50? Yes

----------
tested on: U2OS; assay: Cytotoxicity against human U2OS cells assessed as cell survival after 48 hrs SRB assay; type: cell-based
Reported log10 IC50 by item:
# values: log10(IC50), units µM

// fetch log10 IC50 given entry O=C(CCSc1ccc([N+](=O)[O-])c2nonc12)NCCO 0.20

// fetch log10 IC50 given entry O=C(NO)c1ccc(Sc2ccc([N+](=O)[O-])c3nonc23)cc1 1.30

// fetch log10 IC50 given entry O=[N+]([O-])c1ccc(SCc2ccccc2)c2nonc12 -0.05

// fetch log10 IC50 given entry O=C(NCCO)c1ccc(Sc2ccc([N+](=O)[O-])c3nonc23)cc1 0.96

----------
Reported solubility by item:
assay: Solubility in water; format: physicochemical

structure.smiles.string	solubility
O=[N+]([O-])c1ccc(S(=O)(=O)CCCCCCO)c2nonc12	400 µM

// fetch solubility given entry O=[N+]([O-])c1ccc(SCCc2ccccc2)c2nonc12 < 100 µM

// fetch solubility given entry O=C(NOCc1ccccc1)c1ccc(CSc2ccc([N+](=O)[O-])c3nonc23)cc1 ≤ 50 µM

----------
Reported solubility by item:
assay: Solubility in water; format: physicochemical
Please give a number only; it is taken to be in µM.

molecule	data.value
CC(=O)NCCSc1ccc([N+](=O)[O-])c2nonc12	1000
COC(=O)CCSc1ccc([N+](=O)[O-])c2nonc12	100
O=[N+]([O-])c1ccc(SCC(O)CO)c2nonc12 (stereo not drawn)	10000

// fetch solubility given entry O=C(O)c1ccc(Sc2ccc([N+](=O)[O-])c3nonc23)cc1 10000

// fetch solubility given entry COC(=O)C(CSc1ccc([N+](=O)[O-])c2nonc12)NC(=O)OC(C)(C)C (stereo not drawn) 100

// fetch solubility given entry O=C(CCSc1ccc([N+](=O)[O-])c2nonc12)NCCO 1000

// fetch solubility given entry CONC(=O)c1ccc(Sc2ccc([N+](=O)[O-])c3nonc23)cc1 100

// fetch solubility given entry CCOC(=O)c1ccc(CSc2ccc([N+](=O)[O-])c3nonc23)cc1 100

----------
Reported IC50 values, Glutathione S-transferase P (Homo sapiens, UniProt P09211).
Please give a number only; it is taken to be in µM.

Sample records with IC50:
molecule	assayed.system	data.value
O=[N+]([O-])c1ccc([S+]([O-])CCCCCCO)c2nonc12 (configuration not stated)	Glutathione S-transferase P (Homo sapiens, UniProt P09211)	14
O=[N+]([O-])c1ccc(Sc2ccccc2)c2nonc12	Glutathione S-transferase P (Homo sapiens, UniProt P09211)	0.6

// fetch IC50 given entry CONC(=O)c1ccc(Sc2ccc([N+](=O)[O-])c3nonc23)cc1 0.5

// fetch IC50 given entry O=C(NO)c1ccc(Sc2ccc([N+](=O)[O-])c3nonc23)cc1 1.2

// fetch IC50 given entry O=C(CCc1ccc(Sc2ccc([N+](=O)[O-])c3nonc23)cc1)NOCc1ccccc1 0.1

// fetch IC50 given entry CCOC(=O)c1ccc(CSc2ccc([N+](=O)[O-])c3nonc23)cc1 0.7

// fetch IC50 given entry COC(=O)C(CSc1ccc([N+](=O)[O-])c2nonc12)NC(=O)OC(C)(C)C (configuration not stated) 0.6
